Origin of the recorded values: ChEMBL document CHEMBL3351780

# Test protocol: Aqueous solubility of the compound by UV-spectrophotometry
# Format: physicochemical
Endpoint label: solubility (µg/mL)
Write down the numeric answer in µg/mL and omit the unit.

Fill in: solubility of Cc1ncc([N+](=O)[O-])n1CC(O)Cn1cc(C(=O)O)c(=O)c2cc(F)cc(F)c21 (stereo not drawn) is ___
570

Fill in: solubility of COc1ccc2c(c1)c(=O)c(C(=O)O)cn2CC(O)Cn1c([N+](=O)[O-])cnc1C (stereo not drawn) is ___
400

Fill in: solubility of Cc1ncc([N+](=O)[O-])n1CC(O)Cn1cc(C(=O)O)c(=O)c2cc(F)ccc21 (stereo not drawn) is ___
380

###

# Test protocol: Cytotoxicity against human LO2 cells assessed as inhibition of cell viability at 32 ug/ml after 24 hrs by MTT assay
# Format: cell-based, L02
# Condition notes: read-out: INH
Endpoint label: cytotoxicity at 24 h, 32 ug/ml

Fill in: cytotoxicity at 24 h, 32 ug/ml of Cc1ncc([N+](=O)[O-])n1CC(O)Cn1cc(C(=O)O)c(=O)c2ccc(C(F)(F)F)cc21 (stereo unspecified) is ___
10.3%

###

# Test system: Pichia norvegensis
# Test protocol: Antifungal activity against Candida mycoderma after 24 hrs by microbroth dilution method
# Format: functional
Endpoint label: MIC (µg/mL)
Write down the numeric answer in µg/mL and omit the unit.

Fill in: MIC of Cc1ncc([N+](=O)[O-])n1CC(O)Cn1cc(C(=O)O)c(=O)c2cccc(F)c21 (stereo unspecified) is ___
512

Fill in: MIC of CCOC(=O)c1cn(CC2CO2)c2c(F)cccc2c1=O (racemic) is ___
64

Fill in: MIC of CCOC(=O)c1cn(CC(O)Cn2c([N+](=O)[O-])cnc2C)c2ccc(F)cc2c1=O (racemic) is ___
128

Fill in: MIC of CCOC(=O)c1cn(CC2CO2)c2ccc(F)cc2c1=O (racemic) is ___
8

Fill in: MIC of CCOC(=O)c1cn(CC(O)Cn2c([N+](=O)[O-])cnc2C)c2c(Cl)cc(Cl)cc2c1=O (racemic) is ___
64

Fill in: MIC of COc1ccc2c(c1)c(=O)c(C(=O)O)cn2CC(O)Cn1c([N+](=O)[O-])cnc1C (stereo unspecified) is ___
512

Fill in: MIC of CCOC(=O)c1cn(CC2CO2)c2cc(Cl)c(F)cc2c1=O (racemic) is ___
1

Fill in: MIC of CCOC(=O)c1cn(CC2CO2)c2c(F)cc(F)cc2c1=O (racemic) is ___
16

Fill in: MIC of CCOC(=O)c1cn(CC(O)Cn2cnc([N+](=O)[O-])c2)c2ccc(C)cc2c1=O (racemic) is ___
128

Fill in: MIC of O=C(O)c1cn(CC(O)Cn2cnc([N+](=O)[O-])c2)c2c(F)cccc2c1=O (stereo unspecified) is ___
128

Fill in: MIC of Cc1ncc([N+](=O)[O-])n1CC(O)Cn1cc(C(=O)O)c(=O)c2cc(Cl)cc(Cl)c21 (stereo unspecified) is ___
256

Fill in: MIC of CCOC(=O)c1cn(CC2CO2)c2ccc(C)cc2c1=O (racemic) is ___
8

Fill in: MIC of CCOC(=O)c1cn(CC(O)Cn2cnc([N+](=O)[O-])c2)c2c(F)cccc2c1=O (racemic) is ___
256

Fill in: MIC of Cc1ncc([N+](=O)[O-])n1CC(O)Cn1cc(C(=O)O)c(=O)c2ccc(C(F)(F)F)cc21 (stereo unspecified) is ___
64

Fill in: MIC of O=C(O)c1cn(CC(O)Cn2cnc([N+](=O)[O-])c2)c2c(Cl)cc(Cl)cc2c1=O (stereo unspecified) is ___
64

Fill in: MIC of CCOC(=O)c1cn(CC(O)Cn2cnc([N+](=O)[O-])c2)c2ccc(OC)cc2c1=O (racemic) is ___
512

Fill in: MIC of O=C(O)c1cn(CC(O)Cn2cnc([N+](=O)[O-])c2)c2ccc(F)cc2c1=O (stereo unspecified) is ___
256

Fill in: MIC of Cc1ncc([N+](=O)[O-])n1CC(O)Cn1cc(C(=O)O)c(=O)c2cc(F)ccc21 (stereo unspecified) is ___
256

Fill in: MIC of CCOC(=O)c1cn(CC(O)Cn2cnc([N+](=O)[O-])c2)c2c(Cl)cc(Cl)cc2c1=O (racemic) is ___
64

Fill in: MIC of CCOC(=O)c1cn(CC(O)Cn2cnc([N+](=O)[O-])c2)c2cc(C(F)(F)F)ccc2c1=O (racemic) is ___
32

Fill in: MIC of CCOC(=O)c1cn(CC(O)Cn2cnc([N+](=O)[O-])c2)c2c(F)cc(F)cc2c1=O (racemic) is ___
16

Fill in: MIC of CCOC(=O)c1cn(CC(O)Cn2c([N+](=O)[O-])cnc2C)c2ccc(C)cc2c1=O (racemic) is ___
256

Fill in: MIC of CCOC(=O)c1cn(CC2CO2)c2ccc(OC)cc2c1=O (racemic) is ___
32

Fill in: MIC of CCOC(=O)c1cn(CC(O)Cn2c([N+](=O)[O-])cnc2C)c2cc(Cl)c(F)cc2c1=O (racemic) is ___
128

Fill in: MIC of CCOC(=O)c1cn(CC(O)Cn2cnc([N+](=O)[O-])c2)c2ccc(F)cc2c1=O (racemic) is ___
32

Fill in: MIC of COc1ccc2c(c1)c(=O)c(C(=O)O)cn2CC(O)Cn1cnc([N+](=O)[O-])c1 (stereo unspecified) is ___
128

Fill in: MIC of Cc1ncc([N+](=O)[O-])n1CC(O)Cn1cc(C(=O)O)c(=O)c2cc(F)c(Cl)cc21 (stereo unspecified) is ___
256

Fill in: MIC of CCOC(=O)c1cn(CC(O)Cn2c([N+](=O)[O-])cnc2C)c2c(F)cc(F)cc2c1=O (racemic) is ___
64

Fill in: MIC of CCOC(=O)c1cn(CC2CO2)c2c(Cl)cc(Cl)cc2c1=O (racemic) is ___
1

Fill in: MIC of O=C(O)c1cn(CC(O)Cn2cnc([N+](=O)[O-])c2)c2cc(C(F)(F)F)ccc2c1=O (stereo unspecified) is ___
128

Fill in: MIC of CCOC(=O)c1cn(CC(O)Cn2c([N+](=O)[O-])cnc2C)c2c(F)cccc2c1=O (racemic) is ___
128

Fill in: MIC of O=C(O)c1cn(CC(O)Cn2cnc([N+](=O)[O-])c2)c2c(F)cc(F)cc2c1=O (stereo unspecified) is ___
64

Fill in: MIC of O=C(O)c1cn(CC(O)Cn2cnc([N+](=O)[O-])c2)c2cc(Cl)c(F)cc2c1=O (stereo unspecified) is ___
128

Fill in: MIC of Cc1ccc2c(c1)c(=O)c(C(=O)O)cn2CC(O)Cn1c([N+](=O)[O-])cnc1C (stereo unspecified) is ___
256

Fill in: MIC of CCOC(=O)c1cn(CC(O)Cn2cnc([N+](=O)[O-])c2)c2cc(Cl)c(F)cc2c1=O (racemic) is ___
128

Fill in: MIC of CCOC(=O)c1cn(CC2CO2)c2cc(C(F)(F)F)ccc2c1=O (racemic) is ___
32
